Here is a set of compounds with reported pIC50 for Receptor-type tyrosine-protein kinase FLT3 (Homo sapiens), compiled from the literature.
pIC50: −log10 of the molar value.

// below: answered compounds
compound_structure: COCCN1C(C)(C)CC(Oc2ncc([C@H]3CC[C@H](O)CC3)c3nc(N[C@@H](C)CC(F)(F)F)ncc23)CC1(C)C
parameter_measured: pIC50
recorded_value: 6.00 to 7.00
//
compound_structure: CC[C@H](C)Nc1ncc2c(OCC34CCC(N)(CC3)CC4)ncc([C@H]3CC[C@H](O)CC3)c2n1
parameter_measured: pIC50
recorded_value: 5.00 to 6.00
//
compound_structure: COc1ccc(Nc2ccc(C(=O)c3c[nH]c4ncc(C)cc34)c(F)n2)cn1
parameter_measured: pIC50
recorded_value: > 7.00
//
compound_structure: CN1CCN(c2ccc3nc(-c4c(N[C@H]5CC[C@@H](O)CC5)c5sccc5[nH]c4=O)[nH]c3c2)CC1
parameter_measured: pIC50
recorded_value: ≥ 7.30
//
compound_structure: CCC(CC)Nc1ncc2c(=O)n(C3CCNCC3)cc([C@H]3CC[C@H](O)CC3)c2n1
parameter_measured: pIC50
recorded_value: 5.00 to 6.00
//
compound_structure: CC1(C)CN(c2ccc(-c3oc(-c4c(F)ccc5[nH]ccc45)nc3C(N)=O)cc2)CCN1
parameter_measured: pIC50
recorded_value: 8.72

Now consider a different compound.
Kindly state the measured pIC50 obtained for CC[C@H](C)Nc1ncc2c(OC3CCN(C)CC3)ncc([C@H]3CC[C@H](O)CC3)c2n1 with Receptor-type tyrosine-protein kinase FLT3 (Homo sapiens).
5.00 to 6.00
